test.system: human TREM2/DAP12 fusion protein (human, UniProt O43914 41-113, limits assumed)
Sequence (O43914 other isoform, or with tags, fused parts or gaps limits assumed): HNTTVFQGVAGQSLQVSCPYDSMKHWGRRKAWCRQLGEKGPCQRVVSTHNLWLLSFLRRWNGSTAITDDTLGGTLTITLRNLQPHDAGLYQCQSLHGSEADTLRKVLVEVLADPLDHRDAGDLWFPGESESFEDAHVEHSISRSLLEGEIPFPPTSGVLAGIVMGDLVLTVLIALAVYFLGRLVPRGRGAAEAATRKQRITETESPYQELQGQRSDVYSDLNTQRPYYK
assay.comment: cell-based or functional assay
Hi there, I'd appreciate the recorded Soluble luciferase activation at 10 µg/ml Fold over control for every entry that follows.
Dear colleague, please send the value followed by its unit.

Study these solved cases before continuing.
1) AL2p-h19 (antibody, human IgG1, V domains shown, humanized, human IgG1; Fab and IgG formats under one id) VH: QVQLVQSGAEVKKPGSSVKVSCKASGYAFSSSWMNWVRQAPGQGLEWMGRIYPGDGDTNYAQKFQGRATITADTSTSTAYMELSSLRSEDTAVYYCARLLRNQPGESYAMDYWGQGTLVTVSS VL: DIVMTQTPLSLSVTPGQPASISCRSSQSLVHSNGYTYLHWYLQKPGQSPQLLIYKVSNRFSGVPDRFSGSGSGTDFTLKISRVEAEDVGVYYCSQSTRVPYTFGQGTKLEIK = 4.97 fold over control
2) AL2p-h29 (antibody, human IgG1, V domains shown) VH: QVQLVQSGAEVKKPGASVKVSCKASGYAFSSSWMNWVRQAPGQGLEWIGRIYPGDGDTNYAQKFQGRATMTADTSTSTAYMELSSLRSEDTAVYYCARLLRNQPGESYAMDYWGQGTLVTVSS VL: DVVMTQTPLSLSVTPGQPASISCRSSQSLVHSNGYTYLHWYLQKPGQSPQLLIYKVSNRFSGVPDRFSGSGSGTDFTLKISRVEAEDLGVYFCSQSTRVPYTFGQGTKLEIK = 5.8 fold over control
3) AL2p-h42 (antibody, human IgG1, V domains shown, humanized, human IgG1; Fab and IgG formats under one id) VH: QVQLVQSGAEVKKPGASVKVSCKASGYAFSSSWMNWVRQAPGQRLEWMGRIYPGDGDTNYAQKFQGRVTITRDTSASTAYMELSSLRSEDTAVYYCARLLRNQPGESYAMDYWGQGTLVTVSS VL: DVVMTQTPLSLSVTPGQPASISCRSSQSLVHSNGYTYLHWYLQKPGQSPQLLIYKVSNRFSGVPDRFSGSGSGTDFTLKISRVEAEDVGVYYCSQSTRVPYTFGQGTKLEIK = 9.29 fold over control

Below are some binders; for each one, tell me its Soluble luciferase activation at 10 µg/ml Fold over control.
1. AL2p-h44 (antibody, human IgG1, V domains shown, humanized, human IgG1; Fab and IgG formats under one id) VH: QVQLVQSGAEVKKPGASLKVSCKASGYAFSSSWMNWVRQAPGQRLEWIGRIYPGDGDTNYAQKFQGRATLTADTSASTAYMELSSLRSEDTAVYFCARLLRNQPGESYAMDYWGQGTLVTVSS VL: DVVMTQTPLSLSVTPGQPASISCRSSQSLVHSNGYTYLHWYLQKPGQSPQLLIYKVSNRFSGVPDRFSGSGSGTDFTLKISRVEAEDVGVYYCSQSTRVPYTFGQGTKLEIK
2. AL2p-h33 (antibody, human IgG1, V domains shown, humanized, human IgG1; Fab and IgG formats under one id) VH: QVQLVQSGAEVKKPGSSVKVSCKASGYAFSSSWMNWVRQAPGQGLEWIGRIYPGDGDTNYAQKFQGRATLTADTSTTTAYMELSSLRSEDTAVYFCARLLRNQPGESYAMDYWGQGTLVTVSS VL: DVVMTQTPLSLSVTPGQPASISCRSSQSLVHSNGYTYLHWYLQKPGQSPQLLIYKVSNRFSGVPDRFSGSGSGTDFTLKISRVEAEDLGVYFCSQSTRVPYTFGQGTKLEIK

Data returned:
1. 7.29 fold over control
2. 6.21 fold over control
